- System: Staphylococcus aureus
- assay.protocol: Plate dilution antimicrobial susceptibility, Staphylococcus aureus
- conditions: absence of horse serum
Exercise: for every item that follows, state its recorded Minimum Inhibitory Concentration.
Quick reminder: number only, in mg/L, skip the unit.

Can you share its Minimum Inhibitory Concentration? I mean this molecule: CC1CCc2cc(Br)cc3c(=O)c(C(=O)O)cn1c23 (centres unmarked)
100

Data request, read-out Minimum Inhibitory Concentration, for CC1CCc2cc(F)cc3c(=O)c(C(=O)O)cn1c23 (centres unmarked)
10

Which Minimum Inhibitory Concentration is reported for this molecule? COc1cc2c(=O)c(C(=O)O)cn3c2c(c1Cl)CCC3C (centres unmarked)
10

Need Minimum Inhibitory Concentration of CC1CCc2c(N)c(Cl)cc3c(=O)c(C(=O)O)cn1c23 (centres unmarked) , thanks.
100

I'd like to know its Minimum Inhibitory Concentration. The molecule in question is CC1CCc2cc(Cl)cc3c(=O)c(C(=O)O)cn1c23 (centres unmarked)
10

Param item = Cc1cc2c(=O)c(C(=O)O)cn3c2c(c1Cl)CCC3C (centres unmarked) ; retrieve measured Minimum Inhibitory Concentration.
10

GET /values?readout=Minimum Inhibitory Concentration&item= CC1CCc2c(Cl)ccc3c(=O)c(C(=O)O)cn1c23 (centres unmarked)
1
